Test system: Mus musculus
MEASUREMENT_NOTES: In vivo potency against Escherichia coli vogel using mouse protection assay when given subcutaneously
Assay type: functional
REPORTED_CONDITIONS: sc, read-out: PD50
Provide the recorded ED50 for the entries that follow.
One number for each entry, in mg/kg.

GET /values?readout=ED50&item= `O=C(O)c1cn(C2CC2)c2c(F)c(N3CCNCC3)c(F)cc2c1=O` 0.3

What about CC(C)NCC1CCN(c2nc3c(cc2F)c(=O)c(C(=O)O)cn3C2CC2)C1 (stereo not given) ? 2

What about Cl.NC1CCN(c2c(F)cc3c(=O)c(C(=O)O)cn(C4CC4)c3c2[N+](=O)[O-])C1 (stereo not given) ? 9

What about NCC1CCN(c2cc3c(cc2F)c(=O)c(C(=O)O)cn3C2CC2)C1 (stereo not given) ? 2

What about CCNCC1CCN(c2c(F)cc3c(=O)c(C(=O)O)cn(C4CC4)c3c2F)C1 (stereo not given) ? 1

What about `O=C(O)c1cn(C2CC2)c2nc(N3CCNCC3)c(F)cc2c1=O` ? 0.4

What about CN(C)CC1CCN(c2cc3c(cc2F)c(=O)c(C(=O)O)cn3C2CC2)C1 (stereo not given) ? 2

What about `O=C(O)c1cn(C2CC2)c2c(Cl)c(N3CCNCC3)c(F)cc2c1=O` ? 0.4

Quick one: give me ED50 for each item below, same order please.
1. CNCC1CCN(c2nc3c(cc2F)c(=O)c(C(=O)O)cn3C2CC2)C1 (stereo not given)
2. Cl.NC1CCN(c2c(F)cc3c(=O)c(C(=O)O)cn(C4CC4)c3c2F)C1 (stereo not given)
3. CC(C)NCC1CCN(c2c(F)cc3c(=O)c(C(=O)O)cn(C4CC4)c3c2F)C1 (stereo not given)
4. CCNCC1CCN(c2nc3c(cc2F)c(=O)c(C(=O)O)cn3C2CC2)C1 (stereo not given)
5. Cl.NC1CCN(c2c(F)cc3c(=O)c(C(=O)O)cn(C4CC4)c3c2Cl)C1 (stereo not given) [CLINAFLOXACIN HYDROCHLORIDE]
6. CC(C)NCC1CCN(c2c(F)cc3c(=O)c(C(=O)O)cn4c3c2OCC4C)C1 (stereo not given)
7. Cl.O=C(O)c1cn(C2CC2)c2c([N+](=O)[O-])c(N3CCNCC3)c(F)cc2c1=O
8. Cl.Nc1c(N2CCC(N)C2)c(F)cc2c(=O)c(C(=O)O)cn(C3CC3)c12 (stereo not given)

1. 1
2. 0.2
3. 1
4. 1
5. 0.6
6. 2
7. 3
8. 6
